- System name: T1, human B7-H4 on the cell surface (human, UniProt Q7Z7D3 25-282)
- T1 sequence: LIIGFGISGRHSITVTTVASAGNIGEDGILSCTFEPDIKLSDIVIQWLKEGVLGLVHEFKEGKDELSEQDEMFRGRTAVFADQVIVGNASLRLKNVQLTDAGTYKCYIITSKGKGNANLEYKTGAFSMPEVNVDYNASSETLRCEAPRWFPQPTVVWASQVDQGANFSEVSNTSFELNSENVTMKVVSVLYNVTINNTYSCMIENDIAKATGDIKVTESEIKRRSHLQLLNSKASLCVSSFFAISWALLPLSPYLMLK
- Experiment description: cell-based or functional assay
Property: Donor 1 Max IFNγ (pg/mL)
Respond with the bare value in pg/mL.

B7-H4 antibody 20502.1 (antibody, human IgG1, kappa, V domains shown, human IgG1/kappa) VH: QLQLQESGPGLVKPSETLSLTCTVSGGSIKSGSYYWGWIRQPPGKGLEWIGNIYYSGSTYYNPSLKSRVTISVDTSKNQFSLKLSSVTAADTAVYYCAREGSYPNQFDPWGQGILVTVSS VL: EIVMTQSPATLSVSPGERATLSCRASQSVSSNLAWYQQKPGQAPRLLIYGASTRATGIPARFSGSGSGTEFTLTISSLQSEDFAVYYCQQYHSFPFTFGGGTKVEIKR : 937
B7-H4 antibody 20501 (antibody, human IgG1, kappa, V domains shown, human IgG1/kappa) VH: QLQLQESGPGLVKPSETLSLTCTVSGGSIKSGSHYWGWIRQPPGKGLEWIGNIYYSGSTYYNPSLKSRVTISVDTSKNQFSLKLSSVTAADTAVYYCAREGSYPNWLDPWGQGTLVTVSS VL: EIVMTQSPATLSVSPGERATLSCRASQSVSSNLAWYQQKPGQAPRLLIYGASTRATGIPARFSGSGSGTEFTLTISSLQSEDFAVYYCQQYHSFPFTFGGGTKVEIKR : 850
B7-H4 antibody 20506 (antibody, V domains shown, human IgG1/kappa) VH: QLQLQESGPGLVKPSETLSLTCTASGGSISHGGYYWSWIRQHPGKGLEWIGNIYYSGSTYYNPSLKSRVTMSVDTSKNQFSLKLSSVTAADTAVYYCARESSTISADFDLWGRGTLVTVSS VL: DIQMTQSPSSVSASVGDRVTITCRASQGISRWLAWYQQKPGKAPKLLIYAASSLQSGVPSRFSGSGSGTDFTLTISSLQPEDFATYYCQQAHTFPYTFGGGTKVEIKR : 981

Here's the next entry for you.
Donor 1 Max IFNγ recorded for this binder, B7-H4 antibody 20496 (antibody, human IgG1, kappa, V domains shown, human IgG1/kappa) VH: QLQLQESGPGLVKPSETLSLTCTVSGGSISSSVYYWSWIRQPPGKGLEWIGSILVSGSTYYNPSLKSRVTISVDTSKNQFSLKLSSVTAADTAVYYCARAVSFLDVWGQGTMVIVSS VL: DIQMTQSPSSLSASVGDRVTITCRASQSISSYLNWYQQKPGKAPKLLIYGASSLQSGVPSRFSGSGSGTDFTLTISSLQPEDFATYYCQQSYDPPWTFGGGTKVEIKR , is 186
